# target-or-system: Muscarinic acetylcholine receptor M3 (Homo sapiens)
# Sequence (P20309 whole entry): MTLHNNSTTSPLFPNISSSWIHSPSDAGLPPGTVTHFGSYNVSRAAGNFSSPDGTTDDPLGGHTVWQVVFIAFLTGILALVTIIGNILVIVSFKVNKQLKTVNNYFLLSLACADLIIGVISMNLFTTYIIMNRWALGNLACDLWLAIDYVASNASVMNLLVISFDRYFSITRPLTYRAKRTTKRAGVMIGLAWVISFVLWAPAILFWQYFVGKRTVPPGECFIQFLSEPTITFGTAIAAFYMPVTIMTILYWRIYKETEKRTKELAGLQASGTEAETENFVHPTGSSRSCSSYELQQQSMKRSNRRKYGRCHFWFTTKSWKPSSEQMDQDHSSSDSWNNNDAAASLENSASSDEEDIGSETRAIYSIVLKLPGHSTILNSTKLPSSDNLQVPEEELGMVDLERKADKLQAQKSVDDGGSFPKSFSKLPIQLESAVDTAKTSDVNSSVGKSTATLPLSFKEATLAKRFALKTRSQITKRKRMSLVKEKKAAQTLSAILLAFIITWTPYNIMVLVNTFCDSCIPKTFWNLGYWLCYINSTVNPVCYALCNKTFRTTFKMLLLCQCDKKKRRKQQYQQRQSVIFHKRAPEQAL
# experiment-description: Binding affinity against human muscarinic acetylcholine receptor M3 in transfected CHO cells
Friendly reminder: Ki below 10 nM is met, at or above is not met.

Lab note: confirm whether the reported Ki for this compound is below 10 nM, equality not counting. compound: `CC1(N)CCN(C(=O)[C@](O)(c2ccccc2)[C@@H]2CCC(F)(F)C2)CC1`
met

Lab note: confirm whether the reported Ki for this compound is below 10 nM, equality not counting. compound: `NCC(=O)N1CCN(C(=O)[C@](O)(c2ccccc2)[C@@H]2CCC(F)(F)C2)CC1`
not met

Lab note: confirm whether the reported Ki for this compound is below 10 nM, equality not counting. compound: `NCCN1CCN(C(=O)[C@](O)(c2ccccc2)[C@@H]2CCC(F)(F)C2)CC1`
met

Lab note: confirm whether the reported Ki for this compound is below 10 nM, equality not counting. compound: `O=C(NCC1CCNCC1)[C@](O)(c1ccccc1)[C@@H]1CCC(F)(F)C1`
not met

Lab note: confirm whether the reported Ki for this compound is below 10 nM, equality not counting. compound: `CCC1(CCN)CCN(C(=O)[C@](O)(c2ccccc2)[C@@H]2CCC(F)(F)C2)CC1`
met

Lab note: confirm whether the reported Ki for this compound is below 10 nM, equality not counting. compound: `O=C(N1CCCNCC1)[C@](O)(c1ccccc1)[C@@H]1CCC(F)(F)C1`
not met

Lab note: confirm whether the reported Ki for this compound is below 10 nM, equality not counting. compound: `NCC1CCN(C(=O)[C@](O)(c2ccccc2)[C@@H]2CCC(F)(F)C2)CC1`
not met

###

# target-or-system: Muscarinic acetylcholine receptor M1 (Homo sapiens)
# Sequence (P11229 whole entry): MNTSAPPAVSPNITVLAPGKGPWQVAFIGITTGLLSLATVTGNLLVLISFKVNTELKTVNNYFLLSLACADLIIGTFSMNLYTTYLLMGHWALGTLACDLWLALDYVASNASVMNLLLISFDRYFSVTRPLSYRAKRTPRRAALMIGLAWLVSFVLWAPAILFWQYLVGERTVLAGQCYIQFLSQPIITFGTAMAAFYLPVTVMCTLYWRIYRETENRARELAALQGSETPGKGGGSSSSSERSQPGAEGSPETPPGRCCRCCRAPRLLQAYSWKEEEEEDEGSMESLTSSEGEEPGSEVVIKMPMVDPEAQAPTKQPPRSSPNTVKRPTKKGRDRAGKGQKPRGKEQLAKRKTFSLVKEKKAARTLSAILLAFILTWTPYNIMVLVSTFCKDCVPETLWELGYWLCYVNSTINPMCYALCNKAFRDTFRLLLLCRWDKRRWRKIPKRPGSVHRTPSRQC
# experiment-description: Binding affinity against human Muscarinic acetylcholine receptor M1 in transfected CHO cells
Friendly reminder: Ki below 7 nM is Fulfilled, at or above is Not fulfilled.

Lab note: confirm whether the reported Ki for this compound is below 7 nM, equality not counting. compound: `NCC1CCN(C(=O)[C@](O)(c2ccccc2)C2CCCC2)CC1`
Fulfilled

Lab note: confirm whether the reported Ki for this compound is below 7 nM, equality not counting. compound: `CC1(CCN)CCN(C(=O)[C@](O)(c2ccccc2)[C@@H]2CCC(F)(F)C2)CC1`
Fulfilled

Lab note: confirm whether the reported Ki for this compound is below 7 nM, equality not counting. compound: `NC1CCN(C(=O)[C@](O)(c2ccccc2)C2CCCC2)CC1`
Fulfilled

Lab note: confirm whether the reported Ki for this compound is below 7 nM, equality not counting. compound: `NCCC1CCN(C(=O)[C@](O)(c2ccccc2)C2CCCC2)CC1`
Fulfilled

Lab note: confirm whether the reported Ki for this compound is below 7 nM, equality not counting. compound: `NCCC1CCN(C(=O)[C@](O)(c2ccccc2)[C@@H]2CCC(F)(F)C2)CC1`
Fulfilled

Lab note: confirm whether the reported Ki for this compound is below 7 nM, equality not counting. compound: `NCc1cccc(NC(=O)[C@](O)(c2ccccc2)[C@@H]2CCC(F)(F)C2)c1`
Not fulfilled

Lab note: confirm whether the reported Ki for this compound is below 7 nM, equality not counting. compound: NCC1CCN(C(=O)[C@](O)(c2ccccc2)[C@@H]2CCC(F)(F)C2)C1 (stereo partly drawn)
Fulfilled

Lab note: confirm whether the reported Ki for this compound is below 7 nM, equality not counting. compound: NCC1CCC(NC(=O)[C@](O)(c2ccccc2)[C@@H]2CCC(F)(F)C2)CC1 (stereo partly drawn)
Not fulfilled

Cited source: ChEMBL document CHEMBL1136082
